Source: patent US11919901B2

# target: hERG (Homo sapiens (Human))
# Sequence (Q12809 whole entry): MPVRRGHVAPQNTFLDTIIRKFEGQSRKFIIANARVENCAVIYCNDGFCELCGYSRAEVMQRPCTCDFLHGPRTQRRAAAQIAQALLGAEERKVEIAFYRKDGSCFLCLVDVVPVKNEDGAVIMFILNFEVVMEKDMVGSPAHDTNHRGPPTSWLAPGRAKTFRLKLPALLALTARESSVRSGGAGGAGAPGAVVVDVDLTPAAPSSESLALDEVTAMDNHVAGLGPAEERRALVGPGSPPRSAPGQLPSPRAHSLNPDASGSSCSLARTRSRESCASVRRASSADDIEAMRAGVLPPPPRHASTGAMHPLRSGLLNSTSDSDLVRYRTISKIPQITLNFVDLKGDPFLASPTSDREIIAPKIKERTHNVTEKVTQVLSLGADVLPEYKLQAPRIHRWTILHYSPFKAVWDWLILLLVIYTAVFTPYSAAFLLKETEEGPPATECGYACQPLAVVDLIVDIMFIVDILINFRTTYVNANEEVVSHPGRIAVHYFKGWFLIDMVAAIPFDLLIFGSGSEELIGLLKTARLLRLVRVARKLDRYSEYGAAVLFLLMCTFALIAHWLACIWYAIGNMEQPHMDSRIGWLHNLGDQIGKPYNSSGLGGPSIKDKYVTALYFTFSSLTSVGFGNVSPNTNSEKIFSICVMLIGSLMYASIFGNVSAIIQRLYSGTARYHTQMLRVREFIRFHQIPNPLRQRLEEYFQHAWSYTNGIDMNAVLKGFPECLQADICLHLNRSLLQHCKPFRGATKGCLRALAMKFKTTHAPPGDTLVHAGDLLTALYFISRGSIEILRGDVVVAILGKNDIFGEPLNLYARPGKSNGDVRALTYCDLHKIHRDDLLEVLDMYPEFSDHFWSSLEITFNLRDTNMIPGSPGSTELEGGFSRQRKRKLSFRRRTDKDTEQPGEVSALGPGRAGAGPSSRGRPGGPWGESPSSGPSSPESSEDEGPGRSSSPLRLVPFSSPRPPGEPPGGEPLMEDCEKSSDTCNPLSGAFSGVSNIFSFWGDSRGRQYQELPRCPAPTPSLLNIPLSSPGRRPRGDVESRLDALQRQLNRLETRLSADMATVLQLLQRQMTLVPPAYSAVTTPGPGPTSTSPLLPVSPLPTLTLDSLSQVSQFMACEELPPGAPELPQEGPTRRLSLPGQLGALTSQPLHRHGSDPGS
# assay_remarks: Patch clamp assay (hERG tail currents, whole-cell)
# Format: cell-based
# measurement_parameters: 30 μM compound, hERG transfected HEK 293 cells

given_smiles	hERG % Remaining 30 μM
CCNS(=O)(=O)N[C@@H]1CC[C@@H](CN2CCC3(CC2)CN(c2ncncc2Oc2ccc(F)cc2C(=O)N(C(C)C)C2CC2)C3)OC1	+++ (“+++” means ≥66%)
CC(C)N(C(=O)c1cc(F)ccc1Oc1cncnc1N1CC2(CCN(C[C@@H]3CC[C@@H](NS(=O)(=O)N4CCC4)CO3)CC2)C1)[C@H]1CCOC1	+++ (“+++” means ≥66%)
CC(C)N(C(=O)c1cc(F)ccc1Oc1cncnc1N1CC2(CCN(C[C@@H]3CC[C@@H](NS(=O)(=O)N4CCC4)CO3)CC2)C1)C(C)C	+++ (“+++” means ≥66%)
